Hello, the source for this data is patent US8906868B2, in case you need it.

Form field: IC50 at 24 h (one value per entry).
Experiment: Aminoglycoside cytotoxicity in HK-2 cells (Alamar Blue)
Assay type: cell-based, Human
Settings: human
Protocol: Human kidney cortex proximal tubule cells (HK-2) were purchased from ATCC and maintained according to manufacturer's recommendations in Keratinocyte Serum-Free Media (SFM; Invitrogen), with 0.05 mg/ml bovine pituitary extract and 5 ng/ml of Epidermal growth factor. Solutions of aminoglycosides at a concentration of 50 mg/mL (both control and novel test compounds) were prepared in sterile deionized water. […]

[
  {
    "compound": "NCC[C@H](O)C(=O)N[C@@H]1C[C@H](N)[C@@H](O[C@H]2O[C@H](CN)CC[C@H]2N)[C@H](O)[C@H]1O[C@H]1O[C@H](CO)[C@@H](O)[C@H](N)[C@H]1O [Arbekacin, reference compound]",
    "IC50 at 24 h": "> 20 mM"
  },
  {
    "compound": "CN[C@@H]1[C@@H](O)[C@@H](O[C@@H]2[C@@H](O)[C@H](O[C@H]3O[C@H](CNC[C@H](O)CO)CC[C@H]3N)[C@@H](N)C[C@H]2NC(=O)[C@@H](O)CN)OC[C@]1(C)O",
    "IC50 at 24 h": "10 mM"
  },
  {
    "compound": "CN[C@@H]1C(O)[C@@H](OC2C(O)C(O[C@H]3O[C@H](CNC[C@@H](O)CO)CCC3N)[C@@H](N)C[C@H]2NC(=O)[C@@H](O)CN)OCC1(C)O (stereo partly drawn)",
    "IC50 at 24 h": "> 20 mM"
  }
]

----------
Test system: EC1002 aph(3′)-IV
Assay: organism not typed
Format: cell-based
Conditions: read-out: Compound MIC on Bacterial Strains: EC1002 aph(3′)-IV
Procedure: To compare microbiological activity of the test compounds, minimum inhibitory concentrations (MIC.s) were determined. […] MIC.s were determined by reading the turbidity of plate wells using a SpectraMax Plus384 plate reader (Molecular Devices, Sunnyvale, Calif., USA) at 600 nm and were confirmed by visual inspection. Activity of the test compounds was determined using QC strains and strains with known aminoglycoside resistance mechanisms (TABLE 3). […]
Listed below: MIC values for each entry.

[
  {
    "molecule": "CN[C@@H]1[C@@H](O)[C@@H](O[C@@H]2[C@@H](O)[C@H](O[C@H]3O[C@H](CNCCO)CC[C@H]3N)[C@@H](N)C[C@H]2NC(=O)[C@@H](O)CNN)OC[C@]1(C)O",
    "MIC": "1 to 8 µg/mL"
  },
  {
    "molecule": "CN[C@@H]1C(O)[C@@H](OC2C(O)C(O[C@H]3O[C@H](CNCCO)CCC3N)[C@@H](N)C[C@H]2NC(=O)[C@@H](O)[C@@H](O)CN)OCC1(C)O (some centres unmarked)",
    "MIC": "1 to 8 µg/mL"
  },
  {
    "molecule": "NC[C@H]1O[C@H](O[C@H]2[C@H](O)[C@@H](O[C@H]3O[C@H](CO)[C@@H](O)[C@H](N)[C@H]3O)[C@H](N)C[C@@H]2N)[C@H](N)C[C@@H]1O [Tobramycin, reference compound]",
    "MIC": "< 1 µg/mL"
  },
  {
    "molecule": "CN[C@@H]1[C@@H](O)[C@@H](O[C@@H]2[C@@H](O)[C@H](O[C@H]3O[C@H](CNCC(O)CO)CC[C@H]3N)[C@@H](N)C[C@H]2NC(=O)[C@@H](O)CCN)OC[C@]1(C)O (some centres unmarked)",
    "MIC": "< 1 µg/mL"
  },
  {
    "molecule": "CN[C@@H]1[C@@H](O)[C@@H](O[C@@H]2[C@@H](O)[C@H](O[C@H]3O[C@H](CNCCO)CC[C@H]3N)[C@@H](N)C[C@H]2NC(=O)[C@@H](O)CCN)OC[C@]1(C)O",
    "MIC": "< 1 µg/mL"
  }
]
